Test system: 931267-113-T-J1-PDC multicell spheroid viability;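 note: viability read 7 days after compound addition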
Assay: Anticancer human tumor 931267-113-T-J1-PDC patient-derived colon adenocarcinoma cell line growth inhibition [PI3K]
Conditions: second compound 3.16 µM; first compound 0.0316 µM; active compounds read low
Excerpt: Combinatorial screen of targeted agents with the PI3K inhibitors inavolisib, alpelisib, duvelisib, and copanlisib in multi-cell type tumor spheroids A high-throughput screen of multi-cell type tumor spheroids was designed to identify active combinations of targeted small molecules and PI3K pathway inhibitors. […] Compounds. […] If the clinical Cmax for an agent had not been determined, the highest concentration tested was 10 microM. […]
Can you tell me viability, T/C for the items I'm about to list?

// solved cases for viability, T/C follow
Cn1nccc1Nc1nccc(-c2ccn(C(CO)c3ccc(Cl)c(F)c3)c(=O)c2)n1 (stereo unspecified) + CC(Nc1ncnc2nc[nH]c12)c1cc2cccc(Cl)c2c(=O)n1-c1ccccc1 :: 109%
CC(C)NCC(C(=O)N1CCN(c2ncnc3c2C(C)CC3O)CC1)c1ccc(Cl)cc1 (stereo unspecified) + Cc1nc(NC(=O)N2CCCC2C(N)=O)sc1-c1ccnc(C(C)(C)C(F)(F)F)c1 :: 73.2%
C#Cc1c(F)ccc2cc(O)cc(-c3ncc4c(N5CC6CCC(C5)N6)nc(OCC56CCCN5CC(F)C6)nc4c3F)c12 (stereo unspecified) + Cc1nc(NC(=O)N2CCCC2C(N)=O)sc1-c1ccnc(C(C)(C)C(F)(F)F)c1 :: 67%
Cn1nccc1Nc1nccc(-c2ccn(C(CO)c3ccc(Cl)c(F)c3)c(=O)c2)n1 (stereo unspecified) + Cc1nc(NC(=O)N2CCCC2C(N)=O)sc1-c1ccnc(C(C)(C)C(F)(F)F)c1 :: 74.9%
CC1(C)CCC(Nc2ncc(C(F)(F)F)c(-c3c[nH]c4c(P(C)(C)=O)c(C#N)ccc34)n2)CN1 (stereo unspecified) + Cc1nc(NC(=O)N2CCCC2C(N)=O)sc1-c1ccnc(C(C)(C)C(F)(F)F)c1 :: 75%

// next item, viability, T/C requested
Request: Item CC(C)n1nc(-c2ccc3oc(N)nc3c2)c2c(N)ncnc21 + Cc1nc(NC(=O)N2CCCC2C(N)=O)sc1-c1ccnc(C(C)(C)C(F)(F)F)c1 has what recorded viability, T/C?
Result: 48.4%

Values from PubChem BioAssay AID1963970
